Molecular target: cloned human V1a receptor (Homo sapiens)
Construct: host or cells: human brain astrocytoma 1321N1 cells
Sequence (P37288 whole entry): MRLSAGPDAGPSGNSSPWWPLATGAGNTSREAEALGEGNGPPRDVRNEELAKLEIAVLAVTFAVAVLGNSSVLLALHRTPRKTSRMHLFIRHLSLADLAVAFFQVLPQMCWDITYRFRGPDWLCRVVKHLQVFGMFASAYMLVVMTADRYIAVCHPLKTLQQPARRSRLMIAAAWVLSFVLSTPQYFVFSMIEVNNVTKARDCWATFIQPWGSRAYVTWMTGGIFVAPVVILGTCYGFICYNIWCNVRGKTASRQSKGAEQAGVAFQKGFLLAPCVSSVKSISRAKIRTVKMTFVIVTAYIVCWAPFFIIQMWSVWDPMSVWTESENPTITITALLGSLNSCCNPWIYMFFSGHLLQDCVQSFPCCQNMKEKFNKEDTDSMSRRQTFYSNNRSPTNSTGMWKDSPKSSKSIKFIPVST
Experiment: in vitro functional calcium mobilisation assay (FLIPR), antagonist activity, 1321N1 cells, 250 pM AVP
Format: cell-based
Details: functional pKi derived from pIC50 (Equation 1), FLIPR Ca2+ mobilisation, 1321N1 cells expressing cloned human V1a receptor, read-out: Mean fpKi (Human V1a) (converted)
property: Ki (nM)
Lab book: enter the figure in nM, no units written.

Exercise: Need Ki of CCCCc1nc2c([nH]1)CCN(C(=O)C1CCN(c3ccc(C)cn3)CC1)c1ccc(C)cc1-2 , thanks.
Solution: 4.47

Exercise: Need Ki of CN1CCN(c2nc3c([nH]2)-c2cc(Cl)ccc2N(C(=O)C2CCN(c4ccccc4)CC2)CC3)CC1 , thanks.
Solution: 8.71

Exercise: Need Ki of Cc1ccc(N2CCC(C(=O)N3CCc4nc(N5CCOCC5)[nH]c4-c4cc(Cl)ccc43)CC2)nc1 , thanks.
Solution: 0.794

Exercise: Need Ki of CCn1ncc2c1Nc1cc(Cl)ccc1N(C(=O)C1CCN(c3cc(C)ccn3)CC1)C2 , thanks.
Solution: 0.427

Exercise: Need Ki of Cc1nc2c([nH]1)-c1cc(Cl)ccc1N(C(=O)C1CCN(c3ccccc3)CC1)CC2 , thanks.
Solution: 9.12

Exercise: Need Ki of CCCc1nc2c([nH]1)-c1cc(Cl)ccc1N(C(=O)C1CCN(c3ccccc3)CC1)CC2 , thanks.
Solution: 15.1

Exercise: Need Ki of COc1ccc(N2CCC(C(=O)N3CCc4nc(C5CCOCC5)[nH]c4-c4cc(C)ccc43)CC2)nc1 , thanks.
Solution: 5.62

Exercise: Need Ki of CCc1nc2c([nH]1)-c1cc(C)ccc1N(C(=O)C1CCN(c3cc(C)ccn3)CC1)CC2 [Example 18] , thanks.
Solution: 2.29

Exercise: Need Ki of COc1cccnc1N1CCC(C(=O)N2CCc3nc(N4CCOCC4)[nH]c3-c3cc(C)ccc32)CC1 , thanks.
Solution: 0.977

Exercise: Need Ki of O=C(C1CCN(c2ccc([N+](=O)[O-])cc2)CC1)N1Cc2cccn2Cc2ccccc21 , thanks.
Solution: 162
